Measured values drawn from ChEMBL document CHEMBL1127212 for this set.

Species: Oryctolagus cuniculus
assay.notes: Tested for inhibition of aggregation induced by arachidonic acid in rabbit platelet rich plasma in Vitro at the dose of 125 uM
Assay type: functional
parameter.measured: pIC50
One number for each entry, as −log10 of the molar value.

## Input Please report the measured pIC50 for CC(=O)OC1N([N+](=O)[O-])C(=O)c2ccccc2N1[N+](=O)[O-] (stereo unspecified)
## Output 4.30
